Molecular target: T1, recombinant, soluble human ASGR-1 (human, UniProt P07306 62-291)
T1 construct: biotinylated in the binning assay; also called soluble huASGR-1; Soluble ASGR-1 (Amgen)
T1 sequence: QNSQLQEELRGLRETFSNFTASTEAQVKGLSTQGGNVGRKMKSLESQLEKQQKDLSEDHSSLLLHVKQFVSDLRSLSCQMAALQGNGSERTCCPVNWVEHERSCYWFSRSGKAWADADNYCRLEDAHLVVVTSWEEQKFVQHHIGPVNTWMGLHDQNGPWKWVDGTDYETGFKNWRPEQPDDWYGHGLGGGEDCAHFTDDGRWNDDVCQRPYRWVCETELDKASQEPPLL
Assay: Octet BLI dissociation, pH 7.4 minus calcium
Measured Quantity: % Change Compared to pH 7.4 + Calcium (%)
# unit: % | format: bare number

Example cases with answers are listed next.
binder="210G10 (antibody, V domains shown, hybridoma mAb) VH: QVQLQESGPGLVKPSETLSLNCTVSGGSIRSYYWSWIRQPAGKGLEWIGRIYTSGSTDYNPSLKSRITMSVDTSKNQFSLKLSSVTAADTAVYYCARGFGDWDYWGQGTLVTVSS VL: DIQMTQSPSSLSASVGDRVTITFRTSQGIRNDLGWYQQQPGKTPKRMIYAASSLFSGVPSRFSGSRSGTDFTLTISSLQPEDFATYYCLQYNSYPPTFGQGTRLEIK" unit_symbol=% data_value=-3
binder="149F8 (antibody, V domains shown, hybridoma mAb) VH: EVQLLESGGGLVQPGGSLRLSCAASGFTFSSYAMSWVRQAPGKGLEWVSAISGRGGNTFYADSVKGRFTISRDNSKNTLYLQMNSLRAEDTAVYYCAKKDYDYVWGSPYFDYWGQGTLVTVSS VL: DIQMTQSPASVSASVGDRVTITCRASQGISNWLAWYQQKPGKAPKLLIYAASSLQSGVPSRFSGNESGTDFTLSISSLQPEDFAIYYCQQTDSFPFTFGPGTKVDVK" unit_symbol=% data_value=1

Turning now to a further binder:
*Q* # lookup: % Change Compared to pH 7.4 + Calcium of 197B6 (antibody, V domains shown, hybridoma mAb) VH: QVQLVESGGGVVQPGRSLRLSCAASGFTFSSYGMHWVRQAPGKGLEWVAVIWYDGSNKNYADSVKGRFTISRDNSKNMLYLQMNSLRAEDTAMYYCARDQGVGYDGLDVWGQGTSVTVSS VL: DIQMTQSPSSLSASVGDRVTITCRASQGIGKYLAWFQQKPGKAPKSLIYGASSLQSGVPSKFSGSGSGTDFTLTISSLQPENFATYYCQQYSTYPLTFGGGTKVEIK
*A* -1
